// IC50 lookup, one value per entry
# STUDY SYSTEM: BRAF (Homo sapiens, UniProt P15056)
# Construct: GST; purchased Millipore Sigma B4062-10UG
# Sequence (P15056 whole entry): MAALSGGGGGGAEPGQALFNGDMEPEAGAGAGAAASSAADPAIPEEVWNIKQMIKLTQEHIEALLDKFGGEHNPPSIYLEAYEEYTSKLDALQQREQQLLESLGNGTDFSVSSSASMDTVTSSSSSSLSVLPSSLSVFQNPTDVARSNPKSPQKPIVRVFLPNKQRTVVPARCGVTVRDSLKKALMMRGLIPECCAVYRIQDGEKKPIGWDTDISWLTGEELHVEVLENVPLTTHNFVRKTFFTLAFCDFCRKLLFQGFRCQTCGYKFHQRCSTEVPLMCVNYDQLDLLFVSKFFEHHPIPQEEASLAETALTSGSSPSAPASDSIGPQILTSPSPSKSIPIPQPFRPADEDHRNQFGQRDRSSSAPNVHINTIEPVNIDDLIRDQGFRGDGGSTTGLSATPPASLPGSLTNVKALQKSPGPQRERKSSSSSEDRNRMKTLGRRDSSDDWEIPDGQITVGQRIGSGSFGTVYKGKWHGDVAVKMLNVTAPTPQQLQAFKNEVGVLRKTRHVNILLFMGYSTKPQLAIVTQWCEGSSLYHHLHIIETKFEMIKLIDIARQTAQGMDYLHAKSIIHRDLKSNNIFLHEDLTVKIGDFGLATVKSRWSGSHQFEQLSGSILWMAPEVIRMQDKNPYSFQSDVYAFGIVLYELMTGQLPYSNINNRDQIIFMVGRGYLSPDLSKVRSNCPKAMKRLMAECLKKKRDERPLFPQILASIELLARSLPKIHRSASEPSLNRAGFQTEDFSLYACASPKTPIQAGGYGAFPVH
# ASSAY REMARKS: BRAF kinase activity assay (ADP-Glo)
# Assay type: biochemical
# SETTINGS: Table 3; 10 μM ATP, kinase-dead MEK1 substrate

[
  {
    "STRUCTURE SMILES STRING": "N#CC1(c2cccc3c2ncn3-c2nc3c(Nc4c(F)ccc(NS(=O)(=O)c5cccc(Cl)c5Cl)c4F)ncnc3s2)CC1",
    "IC50": "1 to 10 nM"
  }
]

Q: Report measured IC50; entry is "O=S(=O)(Nc1ccc(F)c(Nc2ncnc3sc(-n4cnc5c(N6CCC7(CCCO7)CC6)cccc54)nc23)c1F)c1cccc(Cl)c1Cl"
A: > 10 nM

Q: Report measured IC50; entry is "Cc1c(F)cccc1S(=O)(=O)Nc1ccc(F)c(Nc2ncnc3sc(-n4cnc5c(N)cccc54)nc23)c1F"
A: 1 to 10 nM

Q: Report measured IC50; entry is "N#CC1CCN(c2cccc3c2ncn3-c2nc3c(Nc4c(F)ccc(NS(=O)(=O)c5cccc(Cl)c5Cl)c4F)ncnc3s2)CC1"
A: 1 to 10 nM

====

// pIC50 lookup, one value per entry
# STUDY SYSTEM: BRAF (Homo sapiens)
# Construct: GST; purchased Millipore Sigma B4062-10UG
# ASSAY REMARKS: BRAF kinase activity assay (ADP-Glo)
# Assay type: biochemical
# SETTINGS: Table 3; 10 μM ATP, kinase-dead MEK1 substrate
pIC50: −log10 of the molar value.

Q: Report measured pIC50; entry is O=C(c1cn(-c2nc3c(Nc4c(F)ccc(NS(=O)(=O)c5cccc(Cl)c5Cl)c4F)ncnc3s2)c2ccccc12)N1CCC(O)C1 (centres unmarked)
A: > 9.00

Q: Report measured pIC50; entry is "Cc1c(F)cccc1S(=O)(=O)Nc1ccc(F)c(Nc2ncnc3sc(-n4cnc5c(C(C)(C)C#N)cccc54)nc23)c1F"
A: 8.00 to 9.00

Q: Report measured pIC50; entry is Cc1c(F)cccc1S(=O)(=O)Nc1ccc(F)c(Nc2ncnc3sc(-n4nc(C(=O)N5CCC(CO)C5)c5ccccc54)nc23)c1F (centres unmarked)
A: 8.00 to 9.00

====

// pIC50 lookup, one value per entry
# STUDY SYSTEM: BRAF (Homo sapiens)
# Construct: GST; purchased Millipore Sigma B4062-10UG
# ASSAY REMARKS: BRAF kinase activity assay (ADP-Glo)
# Format: biochemical
# SETTINGS: Table 3; 10 μM ATP, kinase-dead MEK1 substrate
pIC50: −log10 of the molar value.

Q: Report measured pIC50; entry is "O=S(=O)(Nc1ccc(F)c(Nc2ncnc3sc(-n4cnc5c(N6CCC(F)(CO)CC6)cccc54)nc23)c1F)c1cccc(Cl)c1Cl"
A: 8.00 to 9.00

====

# STUDY SYSTEM: CRAF (Homo sapiens, UniProt P04049)
# Construct: fused on or other part: GST tag (N-terminal according to the vendor's product)
# Sequence (P04049 whole entry Y340E/Y341E, form open, the tested form may be a part): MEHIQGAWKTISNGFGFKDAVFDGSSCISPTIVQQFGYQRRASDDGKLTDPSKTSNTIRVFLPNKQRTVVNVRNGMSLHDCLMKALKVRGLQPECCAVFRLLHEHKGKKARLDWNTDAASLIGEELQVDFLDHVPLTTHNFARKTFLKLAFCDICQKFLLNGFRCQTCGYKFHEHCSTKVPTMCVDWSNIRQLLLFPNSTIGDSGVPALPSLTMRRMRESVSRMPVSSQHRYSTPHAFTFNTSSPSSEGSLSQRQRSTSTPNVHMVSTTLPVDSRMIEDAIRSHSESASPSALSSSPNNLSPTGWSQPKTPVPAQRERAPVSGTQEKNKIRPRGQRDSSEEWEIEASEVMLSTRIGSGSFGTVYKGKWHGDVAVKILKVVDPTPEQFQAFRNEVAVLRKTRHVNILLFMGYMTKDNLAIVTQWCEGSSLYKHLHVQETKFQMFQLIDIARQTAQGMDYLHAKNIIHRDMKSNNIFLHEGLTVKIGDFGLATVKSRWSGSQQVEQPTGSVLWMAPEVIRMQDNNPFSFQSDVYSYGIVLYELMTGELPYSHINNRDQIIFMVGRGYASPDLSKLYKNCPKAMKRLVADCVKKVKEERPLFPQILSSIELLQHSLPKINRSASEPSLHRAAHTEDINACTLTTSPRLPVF
# ASSAY REMARKS: CRAF kinase activity assay (ADP-Glo)
# Type: biochemical
# SETTINGS: Table 3; 10 μM ATP, kinase-dead MEK1 substrate
VALUE TYPE: IC50

Example results:
[
  {
    "MOLECULE": "O=C(c1cn(-c2nc3c(Nc4c(F)ccc(NS(=O)(=O)c5cccc(Cl)c5Cl)c4F)ncnc3s2)c2ccc(F)cc12)N1C2CCC1COC2 [Example 102]",
    "IC50": "< 10 nM"
  },
  {
    "MOLECULE": "Cc1c(F)cccc1S(=O)(=O)Nc1ccc(F)c(Nc2ncnc3sc(-n4cc(C(=O)NCc5cccnc5)c5ccccc54)nc23)c1F [Example 29]",
    "IC50": "> 50 nM"
  },
  {
    "MOLECULE": "O=S(=O)(Nc1ccc(F)c(Nc2ncnc3sc(-n4cc(S(=O)(=O)N5C6CCC5COC6)c5ccccc54)nc23)c1F)c1cccc(Cl)c1Cl [Example 67]",
    "IC50": "> 50 nM"
  }
]

Q: Report measured IC50; entry is Nc1cccc2c1ncn2-c1nc2c(Nc3c(F)ccc(NS(=O)(=O)c4cccc(Cl)c4Cl)c3F)ncnc2s1 [Example 3]
A: < 10 nM

Q: Report measured IC50; entry is O=S(=O)(CC1CCOCC1)c1cn(-c2nc3c(Nc4c(F)ccc(NS(=O)(=O)c5cccc(Cl)c5Cl)c4F)ncnc3s2)c2ccccc12 [Example 65]
A: 10 to 50 nM

Q: Report measured IC50; entry is O=C(c1cn(-c2nc3c(Nc4c(F)ccc(NS(=O)(=O)c5cccc(Cl)c5Cl)c4F)ncnc3s2)c2ccccc12)N1CC2CC1CO2 (centres unmarked) [Example 84]
A: < 10 nM

Q: Report measured IC50; entry is CC1(CO)CCN(c2cccc3c2ncn3-c2nc3c(Nc4c(F)ccc(NS(=O)(=O)c5cccc(Cl)c5Cl)c4F)ncnc3s2)CC1 [Example 138]
A: > 50 nM

Q: Report measured IC50; entry is O=C1CCCN1c1cn(-c2nc3c(Nc4c(F)ccc(NS(=O)(=O)c5cccc(Cl)c5Cl)c4F)ncnc3s2)c2ccccc12 [Example 110]
A: 10 to 50 nM

Q: Report measured IC50; entry is Cc1ncn(-c2nc3c(Nc4c(F)ccc(NS(=O)(=O)c5cccc(Cl)c5Cl)c4F)ncnc3s2)c1C [Example 103]
A: < 10 nM

Q: Report measured IC50; entry is CN(Cc1ccncc1)C(=O)c1cn(-c2nc3c(Nc4c(F)ccc(NS(=O)(=O)c5cccc(Cl)c5Cl)c4F)ncnc3s2)c2ccccc12 [Example 45]
A: < 10 nM
